Exercise: for every item that follows, state its recorded % phyto.
tested on: KLARINA; test: Field trial, phytotoxicity scoring on ALS inhibitor sensitive reference variety KLARINA; settings: 30 g/ha; BBCH 14; 14 days
Respond with the bare value in %.

Q) Find the recorded % phyto belonging to COC(=O)c1ccccc1S(=O)(=O)NC(=O)N(C)c1nc(C)nc(OC)n1 [Tribenuron-methyl (A1-31), tribenuron-methyl] and report it.
A) 98

Q) Lookup COC(=O)c1csc(C)c1S(=O)(=O)NC(=O)n1nc(OC)n(C)c1=O [Thiencarbazone-methyl (A2-3), thiencarbazone-methyl]
A) 97

Q) Entry COc1cc(OC)n2nc(S(=O)(=O)Nc3c(Cl)ccc(C)c3Cl)nc2n1 [Metosulam (A3-5), metosulam] please
A) 97

Q) Also check COc1nc(C)nc(NC(=O)NS(=O)(=O)c2ccccc2I)n1.[Na] [(A1-41)]
A) 98

---

Consider the following compounds; for each one, report its % phyto.
test system: KLARINA; assay: Field trial, phytotoxicity scoring on ALS inhibitor sensitive reference variety KLARINA; conditions: 30 g/ha; BBCH 14; 8 days
Give just the numeric value; % need not be written.

Q) May I ask what % phyto has been recorded for COc1cc(OC)n2nc(S(=O)(=O)Nc3c(Cl)ccc(C)c3Cl)nc2n1 ?
A) 90

Q) Proceed to COc1nc(C)nc(NC(=O)NS(=O)(=O)c2ccccc2I)n1.[Na]
A) 90

Q) Ok, now COC(=O)c1ccccc1S(=O)(=O)NC(=O)N(C)c1nc(C)nc(OC)n1
A) 91

Q) Lookup COC(=O)c1csc(C)c1S(=O)(=O)NC(=O)n1nc(OC)n(C)c1=O
A) 90

---

tested on: KLARINA; assay: Field trial, phytotoxicity scoring on ALS inhibitor sensitive reference variety KLARINA; settings: 30 g/ha; BBCH 14; 28 days
Give % phyto for every item shown.
Give the number; % is assumed, so skip it.

Q) Give the measured % phyto of COc1nc(C)nc(NC(=O)NS(=O)(=O)c2ccccc2I)n1.[Na] .
A) 100

Q) Next compound up: COC(=O)c1csc(C)c1S(=O)(=O)NC(=O)n1nc(OC)n(C)c1=O
A) 100

Q) Check COC(=O)c1ccccc1S(=O)(=O)NC(=O)N(C)c1nc(C)nc(OC)n1 too.
A) 100

Q) Repeat for the following compound: COc1cc(OC)n2nc(S(=O)(=O)Nc3c(Cl)ccc(C)c3Cl)nc2n1
A) 93
